- System: batrachotoxin (BTX) binding site of the sodium channel
- experiment-description: Affinity for the batrachotoxin (BTX) binding site of the sodium channel, [3H]-batrachotoxinin A20 α-benzoate, rat cerebrocortex synaptosomes
- measurement-conditions: test concentration not given
BTX inhibition (rat) % inhibition vs 60%: at or above is 1.0, below is 0.0.

compound: O=C(NC1CCN(Cc2ccc(C(F)(F)F)cc2)C1)c1noc2c1CN(S(=O)(=O)c1ccc(F)cc1)CC2 (stereo not drawn) [Example 39]
discrete-label: 1.0
--
compound: O=C(NC1CCN(Cc2ccc3ccccc3c2)C1)c1noc2c1CN(S(=O)(=O)c1ccccc1)CC2 (stereo not drawn) [Example 33]
discrete-label: 1.0
--
compound: COc1ccc(OCCNC(=O)c2noc3c2CN(S(=O)(=O)c2ccc(C)cc2)CC3)cc1 [Example 109]
discrete-label: 0.0
--
compound: COc1ccc(Cl)cc1NC(=O)N1CCc2onc(C(=O)NCCc3ccccc3)c2C1 [Example 22]
discrete-label: 0.0
--
compound: CCOc1ccc(NC(=O)N2CCc3onc(C(=O)Nc4ccccc4)c3C2)cc1 [Example 13]
discrete-label: 0.0
--
compound: O=C(c1noc2c1CN(S(=O)(=O)c1ccc3ccccc3c1)CC2)N1CCN(c2nccs2)CC1 [Example 143]
discrete-label: 0.0
